Target: UniProtKB Q9HBA0
Sequence (Q9HBA0 whole entry): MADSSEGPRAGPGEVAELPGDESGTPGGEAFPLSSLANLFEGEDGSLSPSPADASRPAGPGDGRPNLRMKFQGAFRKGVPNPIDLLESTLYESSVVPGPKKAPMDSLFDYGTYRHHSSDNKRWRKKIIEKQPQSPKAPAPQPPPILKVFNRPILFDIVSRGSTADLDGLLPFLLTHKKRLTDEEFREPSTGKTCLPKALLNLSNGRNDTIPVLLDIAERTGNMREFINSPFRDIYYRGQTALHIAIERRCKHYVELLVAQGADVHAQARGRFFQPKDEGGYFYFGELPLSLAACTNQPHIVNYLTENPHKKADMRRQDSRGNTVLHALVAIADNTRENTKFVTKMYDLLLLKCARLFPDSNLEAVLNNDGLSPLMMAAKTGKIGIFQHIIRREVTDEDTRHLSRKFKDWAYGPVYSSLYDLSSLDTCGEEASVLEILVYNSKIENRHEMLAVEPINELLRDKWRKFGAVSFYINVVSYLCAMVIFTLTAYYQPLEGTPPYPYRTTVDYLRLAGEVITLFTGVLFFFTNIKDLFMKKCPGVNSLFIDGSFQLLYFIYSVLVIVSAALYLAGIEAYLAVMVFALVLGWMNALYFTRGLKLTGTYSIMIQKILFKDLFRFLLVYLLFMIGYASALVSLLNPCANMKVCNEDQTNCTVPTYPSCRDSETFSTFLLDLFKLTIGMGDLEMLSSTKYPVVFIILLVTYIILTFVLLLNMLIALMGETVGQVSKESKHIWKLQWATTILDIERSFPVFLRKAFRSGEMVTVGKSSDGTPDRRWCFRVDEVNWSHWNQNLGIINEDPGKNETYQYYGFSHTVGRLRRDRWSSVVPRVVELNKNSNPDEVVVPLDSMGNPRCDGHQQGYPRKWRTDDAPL
Assay: Ligand-gated assay (Fluo4 calcium, FLIPR; inhibition of agonist-induced activation)
Conditions: HEK-293-MSR-II cells transduced with BacMam human TRPV4; agonist at EC80
pIC50: −log10 of the molar value.
endpointLabel: pIC50

Please review the entries below; each comes with its answer.
* Cc1cc(-c2ccc(F)cn2)ncc1N1C[C@@]2(CCC[C@](C)(Cn3cnc4ccc(C#N)cc43)C2)OC1=O [Example 165] | 8.00 to 10.00
* Cc1cccc(-n2cc(CN3C[C@@]4(CCC[C@H](Cn5cnc6ccc(C#N)cc65)C4)OC3=O)nn2)c1 [Example 96] | 7.30 to 8.00
* COc1cc(C)cnc1N1C[C@@]2(CCC[C@](C)(Cn3cnc4ccc(C#N)cc43)C2)OC1=O [Example 127] | 7.30 to 8.00
* CC(C)(C)c1ccc(N2C[C@@]3(CCC[C@](C)(Cn4cnc5ccc(C#N)cc54)C3)OC2=O)nn1 [Example 48] | 8.00 to 10.00
* CN(C)c1cnc(N2C[C@@]3(CCC[C@](C)(Cn4cnc5ccc(C#N)cc54)C3)OC2=O)cn1 [Example 150] | 6.30 to 7.30
* CCOc1ccc(N2C[C@@]3(CCC[C@](C)(Cn4cnc5ccc(C#N)cc54)C3)OC2=O)cn1 [Example 12] | 8.00 to 10.00

Look at this molecule and give its reported pIC50. CC(C)n1cc(CN2C[C@@]3(CCC[C@](C)(Cn4cnc5ccc(C#N)cc54)C3)OC2=O)nn1 [Example 104]
6.30 to 7.30

Also CC(C)(C)c1cnc(N2C[C@@]3(CCC[C@](C)(Cn4cnc5ccc(C#N)cc54)C3)OC2=O)cn1 [Example 53] , if possible.
8.00 to 10.00

Continue with N#Cc1cc(Cl)c2ncn(C[C@H]3CCC[C@]4(C3)CN(CC3(c5nc(C6CCCC6)no5)CCOCC3)C(=O)O4)c2c1 [Example 85]
8.00 to 10.00

Next: CN(C)c1ccc(N2C[C@@]3(CCC[C@](C)(Cn4cnc5ccc(C#N)cc54)C3)OC2=O)cn1 [Example 19]
8.00 to 10.00

What would you report for N#Cc1ccc2ncn(C[C@H]3CCC[C@]4(C3)CN(Cc3cc(-c5ccccc5)no3)C(=O)O4)c2c1 [Example 68] ?
7.30 to 8.00

For CCOC(C)c1noc(C(C)(C)CN2C[C@@]3(CCC[C@H](Cn4cnc5ccc(C#N)cc54)C3)OC2=O)n1 (some centres unmarked) [Example 28] then?
8.00 to 10.00

Lookup COc1cc(Cl)ncc1N1C[C@@]2(CCC[C@](C)(Cn3cnc4ccc(C#N)cc43)C2)OC1=O [Example 122]
8.00 to 10.00

Another: CC(C)(C)c1ncc(N2C[C@@]3(CCC[C@](C)(Cn4cnc5ccc(C#N)cc54)C3)OC2=O)cn1 [Example 134]
8.00 to 10.00

And the next one, C[C@]1(Cn2cnc3ccc(C#N)cc32)CCC[C@@]2(CN(Cc3cn(-c4ccccc4)nn3)C(=O)O2)C1 [Example 8] ?
8.00 to 10.00

And what about the molecule COCc1noc(C(C)(C)CN2C[C@@]3(CCC[C@H](Cn4cnc5ccc(C#N)cc54)C3)OC2=O)n1 [Example 81] ?
8.00 to 10.00

Next molecule: CCOc1ccc(N2C[C@@]3(CCC[C@](C)(Cn4cnc5ccc(C#N)cc54)C3)OC2=O)nn1 [Example 136]
6.30 to 7.30

What about this molecule? N#Cc1ccc2ncn(C[C@H]3CCC[C@]4(C3)CN(Cc3cc(-c5ccc(Cl)cc5)no3)C(=O)O4)c2c1 [Example 67]
7.30 to 8.00

Do the same for COc1cccc(-n2cc(CN3C[C@@]4(CCC[C@H](Cn5cnc6ccc(C#N)cc65)C4)OC3=O)nn2)c1 [Example 95] please
7.30 to 8.00

Entry to check: N#Cc1ccc2ncn(C[C@H]3CCC[C@]4(C3)CN(Cc3cn(-c5cccc(Cl)c5)nn3)C(=O)O4)c2c1 [Example 90]
8.00 to 10.00

Again, but for CC(F)(F)c1cc(N2C[C@@]3(CCC[C@](C)(Cn4cnc5ccc(C#N)cc54)C3)OC2=O)on1 [Example 45]
8.00 to 10.00

Could you do the same for CC(C)(O)c1ccc(N2C[C@@]3(CCC[C@](C)(Cn4cnc5ccc(C#N)cc54)C3)OC2=O)nc1 [Example 167] , please?
8.00 to 10.00

Could you do the same for Cc1cc(Cl)cnc1N1C[C@@]2(CCC[C@](C)(Cn3cnc4ccc(C#N)cc43)C2)OC1=O [Example 121] , please?
8.00 to 10.00

Now give it for Cn1cc(-c2ccnc(CN3C[C@@]4(CCC[C@](C)(Cn5cnc6ccc(C#N)cc65)C4)OC3=O)c2)cn1 [Example 160] too.
8.00 to 10.00

What would you report for CC(C)c1ccc(N2C[C@@]3(CCC[C@H](Cn4cnc5ccc(C#N)cc54)C3)OC2=O)cn1 [Example 142] ?
7.30 to 8.00

Also check Cn1nc(CN2C[C@@]3(CCC[C@H](Cn4cnc5ccc(C#N)cc54)C3)OC2=O)cc1-c1ccccc1 [Example 69]
6.30 to 7.30

What do you have for C[C@]1(Cn2cnc3ccc(C#N)cc32)CCC[C@@]2(CN(c3ccc(C(F)(F)F)nc3)C(=O)O2)C1 [Example 139] ?
8.00 to 10.00

What do you get for COc1ccc(N2C[C@@]3(CCC[C@](C)(Cn4cnc5ccc(C#N)cc54)C3)OC2=O)nc1 [Example 135] ?
6.30 to 7.30

For COc1nc(C)ccc1N1C[C@@]2(CCC[C@](C)(Cn3cnc4ccc(C#N)cc43)C2)OC1=O [Example 126] then?
8.00 to 10.00

Provenance of the data: patent US9187464B2
